Taken from patent US20230303690A1.

Molecular target: T1, LAG3 Protein, Human, Recombinant (His Tag) (Sino Biological Catalog No. 16498-H08H) (human, UniProt P18627 23-450)
T1 construct: Bought protein; also called hLAG3-His; LAG3-His; not shown: His tag
T1 sequence (looked up): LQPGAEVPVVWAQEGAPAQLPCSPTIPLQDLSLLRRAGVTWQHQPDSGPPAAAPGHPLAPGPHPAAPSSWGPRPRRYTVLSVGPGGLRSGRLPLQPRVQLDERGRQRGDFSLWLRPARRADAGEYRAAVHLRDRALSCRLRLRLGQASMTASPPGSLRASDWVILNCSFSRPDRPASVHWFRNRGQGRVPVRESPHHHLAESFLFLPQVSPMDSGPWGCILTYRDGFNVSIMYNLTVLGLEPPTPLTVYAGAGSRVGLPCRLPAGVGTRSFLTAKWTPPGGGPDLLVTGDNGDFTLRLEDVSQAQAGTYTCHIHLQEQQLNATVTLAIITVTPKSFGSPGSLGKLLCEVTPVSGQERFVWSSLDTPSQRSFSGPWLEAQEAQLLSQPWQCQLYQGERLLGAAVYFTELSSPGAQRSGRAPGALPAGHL
Assay: SPR binning on LAG3-His; competitor 21
measurement_type: RU (RU)
// note: answer is a bare numeric in RU

Read off the recorded RU for sdAb No. 18 (VHH, Fc of the tested form not described; also called sdAb 18; not shown: Fc part implied by anti-human Fc capture) VHH: QVQLVESGGGLVQPGGSLRLSCAASGFTLNEHAIGWFRRAPGKEREGVSCISSSDGSTYYHDSVKGRFNMSRDDAKNSVYLQMSSLKPEDTAIYYCAAALGRDCQGGQWKTSSWGQGTQVTVSS
-11.4

Read off the recorded RU for sdAb No. 20 (VHH, Fc of the tested form not described; also called sdAb 20; not shown: Fc part implied by anti-human Fc capture) VHH: QVQLVESGGGLVQPGGSLRLSCAASGLTLDGYAVGWFRQAPGKDREGLSCISGSDGSTHYLDSVKGRFTISRDNAKSTMALQMNSLQFGDTAIYYCAARRGSCSGSWTYWGQGTQVTVSS
-20.1

Read off the recorded RU for sdAb No. 25 (VHH, Fc of the tested form not described; also called sdAb 25; sdAb #25; not shown: Fc part implied by anti-human Fc capture and anti-human IgG Fc detection) VHH: QLQLVESGGGLVQAGGSLRLSCAASGSIESFSFMGWYRQAPGKQRELVAGFTGAASLSFSTYTDAVKGRFTISRDNAKNTVYLQMNSLKPEDTAVYFCNVDPWSQSWPGRYWGQGTQVTVSS
49.3

Read off the recorded RU for sdAb No. 1 (VHH, the tested form was captured by anti-human Fc, its Fc is not described; also called sdAb 1; not shown: Fc part implied by anti-human Fc capture) VHH: QLQLVESGGGLVQAGGSLRLSCAASGFTFDDYAIGWFRQAPGKEREGVSCIRSSDGSTYYADSVKGRFTISSDNAKNTVYLQMNSLKPEDTAVYYCAKDNYSDCRGPYHYWGQGTQVTVSS
-114
